Data origin: patent US20140094413A1

- RUN CONDITIONS: rat, in vivo, iv, 24 mg/kg
Where a SMILES comes first, the peptide text is derived from it. [ ]: non-standard residue; d: D form. dNle = CCCC[C@@H](N)C(=O)O; Ahx = NCCCCCC(=O)O
OUTCOME MEASURE: Vd (L/kg)
Just the number please, in L/kg, no unit attached.

Prompt: # lookup: Vd of CCCC[C@@H](N)C(=O)N[C@@H](Cc1ccc(O)cc1)C(=O)N[C@H](C(=O)NCCCCCC(N)=O)[C@@H](C)CC (H-[dNle]YI[Ahx]-NH2)
Completion: 104

====

- RUN CONDITIONS: rat, in vivo, iv, 24 mg/kg
Where a SMILES comes first, the peptide text is derived from it. [ ]: non-standard residue; d: D form. dNle = CCCC[C@@H](N)C(=O)O; Ahx = NCCCCCC(=O)O
OUTCOME MEASURE: AUC(0-inf) (ng·h/mL)
Just the number please, in ng·h/mL, no unit attached.

Prompt: # lookup: AUC(0-inf) of CCCC[C@@H](N)C(=O)N[C@@H](Cc1ccc(O)cc1)C(=O)N[C@H](C(=O)NCCCCCC(N)=O)[C@@H](C)CC (H-[dNle]YI[Ahx]-NH2)
Completion: 11500
